# key: entry, value: Panc-1 (pancreas, carcinoma) cell viability (% of control)
System: Panc-1 (pancreas, carcinoma) cells
Experiment: Cell viability assay, CellTiter-Glo (Example 21)
Type: cell-based, human
Conditions: 11.1 nM, 72 h treatment

A selection of reference data follows.
>>> test_result("O=C1C2=C(CCN(Cc3cccc(F)c3)C2)N2CCN=C2N1Cc1ccc(F)cc1 [I/6, reference compound]")
"109.1 ± 4.2 % of control"
>>> test_result("[N-]=[N+]=Nc1cccc(CN2CCC3=C(C2)C(=O)N(Cc2ccc(Cl)cc2)C2=NCCN23)c1")
"94.1 ± 4.0 % of control"
>>> test_result("[N-]=[N+]=Nc1cccc(CN2CCC3=C(C2)C(=O)N(Cc2ccc(C(F)(F)F)cc2)C2=NCCN23)c1")
"99.6 ± 1.4 % of control"
>>> test_result("O=C1C2=C(CCN(Cc3cc(F)cc(F)c3)C2)N2CCN=C2N1Cc1ccc(C(F)(F)F)cc1")
"54.4 ± 3.5 % of control"

Query: For `O=C1C2=C(CCN(Cc3cc(F)cc(F)c3)C2)N2CCN=C2N1Cc1ccc(Cl)cc1` , what is its reported Panc-1 (pancreas, carcinoma) cell viability (% of control)?
Reply: 56.9 ± 0.2 % of control

Query: Further, for `[N-]=[N+]=Nc1ccc(CN2C(=O)C3=C(CCN(Cc4cc(F)cc(F)c4)C3)N3CCN=C23)cc1` ?
Reply: 93.6 ± 8.1 % of control

Query: Further, for O=C1C2=C(CCN(Cc3cccc(F)c3)C2)N2CCN=C2N1Cc1ccc(C(F)(F)F)cc1 [I/3, reference compound] ?
Reply: 105.7 ± 4.2 % of control

Query: Further, for `O=C1C2=C(CCN(Cc3cc(F)cc(F)c3)C2)N2CCN=C2N1Cc1ccc(F)cc1` ?
Reply: 61.1 ± 3.4 % of control

Query: Further, for O=C1C2=C(CCN(Cc3ccccc3)C2)N2CCN=C2N1Cc1ccc(C(F)(F)F)cc1 [I/1, reference compound] ?
Reply: 104.6 ± 7.2 % of control

###

System: Detroit 562 (pharynx, carcinoma) cells
Assay: Cell viability assay, CellTiter-Glo (Example 21)
Format: cell-based, human
Conditions: 3.7 nM, 72 h treatment
Attribute measured: Detroit 562 (pharynx, carcinoma) cell viability (% of control)

A selection of reference data follows.
>>> test_result("O=C1C2=C(CCN(Cc3cccc(F)c3)C2)N2CCN=C2N1Cc1ccc(F)cc1 [I/6, reference compound]")
"99.8 ± 6.4 % of control"
>>> test_result("O=C1C2=C(CCN(Cc3cccc(F)c3)C2)N2CCN=C2N1Cc1ccc(C(F)(F)F)cc1 [I/3, reference compound]")
"99.5 ± 8.4 % of control"
>>> test_result("O=C1C2=C(CCN(Cc3cc(F)cc(F)c3)C2)N2CCN=C2N1Cc1ccc(Cl)cc1")
"29.4 ± 4.9 % of control"
>>> test_result("O=C1C2=C(CCN(Cc3cc(F)cc(F)c3)C2)N2CCN=C2N1Cc1ccc(C(F)(F)F)cc1")
"31.9 ± 6.7 % of control"

Attention now turns to another entry.
Query: Detroit 562 (pharynx, carcinoma) cell viability (% of control) of `[N-]=[N+]=Nc1cccc(CN2CCC3=C(C2)C(=O)N(Cc2ccc(C(F)(F)F)cc2)C2=NCCN23)c1` on Detroit 562 (pharynx, carcinoma) cells?
Reply: 48.0 ± 21.7 % of control

###

# key: entry, value: PC-3 (prostate, adenocarcinoma) cell viability (% of control)
Test system: PC-3 (prostate, adenocarcinoma) cells
Experiment: Cell viability assay, CellTiter-Glo (Example 21)
Type: cell-based, human
Details: 3.7 nM, 72 h treatment

A selection of reference data follows.
>>> test_result("[N-]=[N+]=Nc1cccc(CN2CCC3=C(C2)C(=O)N(Cc2ccc(Cl)cc2)C2=NCCN23)c1")
"105.6 ± 1.8 % of control"
>>> test_result("O=C1C2=C(CCN(Cc3cc(F)cc(F)c3)C2)N2CCN=C2N1Cc1ccc(F)cc1")
"82.1 ± 1.6 % of control"
>>> test_result("O=C1C2=C(CCN(Cc3cccc(F)c3)C2)N2CCN=C2N1Cc1ccc(F)cc1 [I/6, reference compound]")
"103.6 ± 14.4 % of control"
>>> test_result("O=C1C2=C(CCN(Cc3cc(F)cc(F)c3)C2)N2CCN=C2N1Cc1ccc(Cl)cc1")
"46.9 ± 4.2 % of control"
>>> test_result("O=C1C2=C(CCN(Cc3cc(F)cc(F)c3)C2)N2CCN=C2N1Cc1ccc(C(F)(F)F)cc1")
"78.9 ± 4.6 % of control"

Query: For `[N-]=[N+]=Nc1ccc(CN2C(=O)C3=C(CCN(Cc4cc(F)cc(F)c4)C3)N3CCN=C23)cc1` , what is its reported PC-3 (prostate, adenocarcinoma) cell viability (% of control)?
Reply: 107.1 ± 5.9 % of control

Query: Further, for O=C1C2=C(CCN(Cc3cccc(F)c3)C2)N2CCN=C2N1Cc1ccc(C(F)(F)F)cc1 [I/3, reference compound] ?
Reply: 100.8 ± 4.0 % of control

Query: Further, for O=C1C2=C(CCN(Cc3ccccc3)C2)N2CCN=C2N1Cc1ccc(C(F)(F)F)cc1 [I/1, reference compound] ?
Reply: 106.0 ± 2.8 % of control

Query: Further, for `[N-]=[N+]=Nc1cccc(CN2CCC3=C(C2)C(=O)N(Cc2ccc(C(F)(F)F)cc2)C2=NCCN23)c1` ?
Reply: 106.8 ± 2.4 % of control

###

# key: entry, value: MDA-MB-231 (breast, adenocarcinoma) cell viability (% of control)
Test system: MDA-MB-231 (breast, adenocarcinoma) cells
Test: Cell viability assay, CellTiter-Glo (Example 21)
Assay type: cell-based, human
Conditions: 11.1 nM, 72 h treatment

A selection of reference data follows.
>>> test_result("[N-]=[N+]=Nc1cccc(CN2CCC3=C(C2)C(=O)N(Cc2ccc(C(F)(F)F)cc2)C2=NCCN23)c1")
"98.5 ± 2.1 % of control"
>>> test_result("O=C1C2=C(CCN(Cc3cc(F)cc(F)c3)C2)N2CCN=C2N1Cc1ccc(C(F)(F)F)cc1")
"59.9 ± 2.1 % of control"
>>> test_result("[N-]=[N+]=Nc1cccc(CN2CCC3=C(C2)C(=O)N(Cc2ccc(Cl)cc2)C2=NCCN23)c1")
"100.4 ± 2.9 % of control"

Attention now turns to another entry.
Query: For `O=C1C2=C(CCN(Cc3cc(F)cc(F)c3)C2)N2CCN=C2N1Cc1ccc(F)cc1` , what is its reported MDA-MB-231 (breast, adenocarcinoma) cell viability (% of control)?
Reply: 63.6 ± 4.4 % of control

###

System: FaDu (pharynx, squamous cell carcinoma) cells
Test: Cell viability assay, CellTiter-Glo (Example 21)
Type: cell-based, human
Conditions: 100 nM, 72 h treatment
Attribute measured: FaDu (pharynx, squamous cell carcinoma) cell viability (% of control)

A selection of reference data follows.
>>> test_result("O=C1C2=C(CCN(Cc3cc(F)cc(F)c3)C2)N2CCN=C2N1Cc1ccc(F)cc1")
"24.0 ± 3.8 % of control"
>>> test_result("O=C1C2=C(CCN(Cc3cccc(F)c3)C2)N2CCN=C2N1Cc1ccc(F)cc1 [I/6, reference compound]")
"27.3 ± 5.2 % of control"
>>> test_result("[N-]=[N+]=Nc1cccc(CN2CCC3=C(C2)C(=O)N(Cc2ccc(Cl)cc2)C2=NCCN23)c1")
"25.3 ± 6.4 % of control"

Attention now turns to another entry.
Query: FaDu (pharynx, squamous cell carcinoma) cell viability (% of control) of O=C1C2=C(CCN(Cc3ccccc3)C2)N2CCN=C2N1Cc1ccc(C(F)(F)F)cc1 [I/1, reference compound] on FaDu (pharynx, squamous cell carcinoma) cells?
Reply: 46.9 ± 5.6 % of control

###

# key: entry, value: IC50
Tested on: H2228 lung cancer cell line
Test: High-throughput screening, CellTiter-Glo cell viability assay at 100 nM
Assay type: cell-based, human
Conditions: Homo sapiens, NCI-H2228, HTS, compounds at 100 nM, 72 h, read-out: cytotoxicity expressed in IC50, H2228 (results of High throughput screening)

A selection of reference data follows.
>>> test_result("Cc1ccccc1CN1C(=O)C2=C(CCN(Cc3ccc(N)cc3)C2)N2CCN=C12")
"> 0.1 µM"
>>> test_result("O=C1C2=C(CCN(Cc3cc(C(F)(F)F)cc(C(F)(F)F)c3)C2)N2CCN=C2N1Cc1ccc(C(F)(F)F)cc1")
"> 0.1 µM"
>>> test_result("O=C1C2=C(CCN(Cc3cc(F)cc(F)c3)C2)N2CCN=C2N1Cc1ccc(C(F)(F)F)cc1")
"< 0.1 µM"
>>> test_result("Nc1cccc(CN2CCC3=C(C2)C(=O)N(Cc2ccc(C(F)(F)F)c(F)c2)C2=NCCN23)c1")
"> 0.1 µM"
>>> test_result("[N-]=[N+]=Nc1ccc(CN2CCC3=C(C2)C(=O)N(Cc2ccc(N=[N+]=[N-])cc2)C2=NCCN23)cc1")
"> 0.1 µM"
>>> test_result("O=C1C2=C(CCN(Cc3cccc(F)c3)C2)N2CCN=C2N1Cc1ccc(C(F)(F)F)cc1 [I/3, reference compound]")
"< 0.1 µM"
>>> test_result("O=C1C2=C(CCN(Cc3cccc(C(F)(F)F)c3)C2)N2CCN=C2N1Cc1ccc(I)cc1 [I/15A]")
"> 0.1 µM"
>>> test_result("Nc1ccc(CN2CCC3=C(C2)C(=O)N(CC2CNC2)C2=NCCN23)cc1")
"> 0.1 µM"

Attention now turns to another entry.
Query: For `Cc1ccccc1CN1C(=O)C2=C(CCN(Cc3cccc(F)c3)C2)N2CCN=C12` , what is its reported IC50?
Reply: > 0.1 µM
